B1: TCAP (parent)
chain: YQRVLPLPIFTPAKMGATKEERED

Variants of: B1
Assay: protein stability index of a GFP-peptide fusion (GPS, HEK-293T) (PSI 1-6); higher = more stable;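 note: lentivirally expressed fusions sorted by FACS into six bins by GFP to DsRed ratio, PSI derived from sequencing read proportions per bin multiplied by bin number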
Conditions: c terminus: a fixed tail appended
protein stability index reference
parameter: protein stability index

> print(dat)
    mutant  endpoint.value
 1    M15I             2.1
 2    T18S            1.81
 3    F10L            3.73
 4    D24F            1.75
 5    T11S            2.36
 6    T11W            2.25
 7     V4E            1.93
 8     P6N            1.35
 9    T11R            3.21
10     V4H            1.37
11    E20N            1.89
12    G16A             1.9
13     P6L            1.73
14    M15R            2.21
15     P6G             1.9
16     P6E            2.22
17    P12L            2.64
18    E23T            2.16
19    E20M             2.4
20     Y1A            5.43
21    A17F            1.74
22    M15A            2.38
23     Y1C            4.53
24     P6S            1.82
25    G16M            1.56
26    E21R            1.97
27    T18G            1.96
28    E21T            1.92
29     R3V            2.09
30    G16L            1.81
31     P6T            2.05
32    G16R            2.05
33     L5R             2.7
34     I9P            4.02
35     R3W            2.69
36    K19G            2.42
37    G16N            1.67
38    R22T            1.86
39    M15N            2.38
40    K14L            1.81
41     L5S            1.97
